Entries and their TGI
Tested on: RXF 393 renal
Test: NCI tumour cell line growth inhibition, 48 h
Hi! Could you send only the number? It should be in µM, unit omitted.

Would you please look over these solved cases?
CC(C)=CCc1c(O)ccc2c1OC1c3ccc(O)c(CC=C(C)C)c3OCC21 (stereo not drawn); 22.1
CC(C)C(C/C=C1/CC(CO)(COC(=O)C(C)(C)C)OC1=O)C(C)C (stereo not drawn); 30.5
O=C1N[C@H]2C(=O)c3c(Cl)sc(Cl)c3[C@H]2O1; 9.31

**Query** Can you look up TGI on RXF 393 renal for CCOC(=O)/C(=C/c1ccccc1)C(=O)c1ccccc1 ?
**Result** 3.92

---

Tested on: SR leukemia
Test: NCI tumour cell line growth inhibition, 48 h
readout: TGI (µM)
Write the answer as a number in µM, unit excluded.

Clc1nc(Cl)c2ncn(C/C=C/Cn3cnc4c(Cl)nc(Cl)nc43)c2n1; 32.2
C=C(CN(C)C)C(=O)c1ccc(C)cc1C; 4.26

**Query** Reported TGI for CC(=O)OCC1OC(O[C@@H]2C[C@H]3C(C)(C)[C@H](OC(C)=O)CC[C@]3(C)[C@H]3CC[C@]4(C)C(=CC[C@H]4[C@@H](C)C[C@@H](O)[C@H](O)C(C)(C)O)[C@@]32C)C(O)C(O)C1O (stereo not given in full) : what is it?
**Result** 31.8

---

System: SNB-78 CNS
Experiment: NCI tumour cell line growth inhibition, 48 h
readout: TGI

Use these answered entries as a reference point.
Cc1cccc(Cl)c1NC(N)=S; > 100 µM
CC1C(/C=C/c2ccoc2)ON2CCCC12 (centres undefined); > 100 µM
CCCCCCCCCCCCC/C=C1\C[C@H](O)COC1=O; 33.9 µM
COc1cc2c(cc1OC)C(=O)Cc1ccc3c(c1CNCC2)OCO3; > 100 µM
c1ccc(CCCC2Sc3cccc4cccc(c34)S2)cc1; > 100 µM

**Query** Provide the documented TGI with SNB-78 CNS as the system for CC(C)[C@](O)(C(=O)OCC1=CC[N+]2([O-])CC[C@@H](O)[C@@H]12)[C@H](C)O (some centres undefined)
**Result** > 10000 µM

**Query** Now give it for CSc1c(S(C)=O)[nH]c2cc(Br)cc(Br)c12 (centres undefined) too.
**Result** 57 µM

**Query** Then this compound: C/C=C/C(=O)[C@@H](O)C(C)C
**Result** > 100 µM

**Query** What would you report for O=C(CSc1nnc(Cc2ccccc2)o1)Nc1ccccc1Cl ?
**Result** > 100 µM

---

Tested on: NCI-H226 lung
Test: NCI tumour cell line growth inhibition, 48 h
readout: TGI (µM)
Field: numeric (µM). Do not append units.

Example cases with answers are listed next.
COc1ccc(-c2ccc3ncc4c(c3c2)n(-c2ccc(N3CCNCC3)c(C(F)(F)F)c2)c(=O)n4C)cn1; 0.116
COc1cc(OC)cc(-c2ccc(-c3ccc(C(=N)N)s3)s2)c1; 3.71

**Query** Quick one: TGI of NC(=O)c1ccc2nc(-c3ccc(C4(N)CCC4)cc3)c(-c3ccccc3)n2n1 ?
**Result** 32.5

**Query** For CC(C)=CCc1c(O)ccc2c1OC1c3ccc(O)c(CC=C(C)C)c3OCC21 (stereo not given) then?
**Result** 30.7

**Query** Next: OC(COc1cccc2ccccc12)CN1CCN(c2ccc(Cl)cc2)CC1 (stereo not given)
**Result** 70.4

**Query** Input COc1cc2c(cc1O)[C@H](C)C(c1ccccc1OC)O2 (stereo not given in full)
**Result** 72.3

Where do these numbers come from? They come from PubChem BioAssay (NCI).
